Provenance of the data: patent US20230391752A1

System: HBV
Experiment: In vitro anti-HBV activity in HepG2.2.15 cell line (intracellular HBV DNA by qPCR at 1 μM)
Format: cell-based
Settings: Hepatitis B virus, 144 h; HepG2.2.15 cells, 1 μM compound, 6 days, intracellular HBV DNA as percentage compared to vehicle control (0.5% DMSO)
TEST READOUT: activity at 1 µM

1. C[C@H]1[C@@H](C(=O)Nc2cc(F)c(F)c(F)c2)CCN1C(=O)c1cc2cccnc2[nH]1 = 60 to 70%
2. N#Cc1cc(NC(=O)[C@H]2CCN(C(=O)c3ccc(Cl)[nH]3)C2)ccc1F = 60 to 70%
3. N#Cc1ccc2[nH]c(C(=O)N3CC[C@H](C(=O)Nc4cc(F)c(F)c(F)c4)C3)cc2c1 = 80 to 90%
4. O=C(Nc1cc(F)c(F)c(F)c1)[C@H]1CCN(C(=O)c2ncc[nH]2)C1 = > 90%
5. COc1cc2cc(C(=O)N3CC[C@H](C(=O)Nc4cc(F)c(F)c(F)c4)C3)[nH]c2cn1 = 80 to 90%
6. O=C(Nc1cc(F)c(F)c(F)c1)[C@H]1CCN(C(=O)c2sccc2Cl)C1 = 70 to 80%
7. N#Cc1cc(NC(=O)[C@H]2CCN(C(=O)c3ccc(-c4ccc(F)cc4)[nH]3)C2)ccc1F = 45 to 60%
8. O=C(Nc1cc(F)c(F)c(F)c1)[C@H]1CCN(C(=O)c2ccc[nH]2)C1 = 80 to 90%
9. Cc1cc(NC(=O)[C@@H]2CN(C(=O)c3ccc(-c4c(C)n[nH]c4C)[nH]3)C[C@H]2C)ccc1F = < 45%
10. Cc1cc2[nH]ncc2cc1-c1ccc(C(=O)N2CC[C@H](C(=O)Nc3ccc(F)c(C#N)c3)C2)[nH]1 = < 45%
11. Cc1ccc2[nH]c(C(=O)N3CC[C@H](C(=O)Nc4cc(F)c(F)c(F)c4)C3)cc2c1 = > 90%
12. O=C(Nc1cc(F)c(F)c(F)c1)[C@H]1CCN(C(=O)c2cc3ncccc3[nH]2)C1 = 70 to 80%
13. Cc1ccc(C(=O)N2CC[C@H](C(=O)Nc3cc(F)c(F)c(Cl)c3)C2)[nH]1 = 45 to 60%
14. O=C(Nc1cc(F)c(F)c(Br)c1)[C@H]1CCN(C(=O)c2cc3ccccc3[nH]2)C1 = 70 to 80%
15. C[C@H]1[C@@H](C(=O)Nc2cc(F)c(F)c(F)c2)CCN1C(=O)c1ccc(Cl)[nH]1 = < 45%
16. COc1ncnc(C)c1-c1ccc(C(=O)N2CC[C@H](C(=O)Nc3ccc(F)c(Cl)c3)C2)[nH]1 = < 45%
17. O=C(Nc1ccc(F)c(Cl)c1)[C@H]1CCN(C(=O)c2ncc[nH]2)C1 = 80 to 90%
18. O=C(Nc1cc(F)c(F)c(F)c1)[C@H]1CCN(C(=O)c2[nH]ccc2Cl)C1 = > 90%
19. Cc1ncsc1-c1ccc(C(=O)N2CC[C@H](C(=O)Nc3cc(F)c(F)c(F)c3)C2)[nH]1 = 45 to 60%
20. O=C(Nc1cc(F)c(F)c(F)c1)[C@H]1CCN(C(=O)c2[nH]c3ccccc3c2-c2cn[nH]c2)C1 = > 90%
21. O=C(Nc1cc(F)c(F)c(F)c1)[C@H]1CCN(C(=O)c2cc3cccnc3[nH]2)C1 = 70 to 80%
22. C[C@H]1[C@@H](C(=O)Nc2cc(F)c(F)c(F)c2)CCN1C(=O)c1cc2ncccc2[nH]1 = 70 to 80%
23. Cc1c[nH]nc1C(=O)N1CC[C@H](C(=O)Nc2cc(F)c(F)c(F)c2)C1 = > 90%
24. Cc1ccc(C(=O)N2CC[C@H](C(=O)Nc3cc(F)c(F)c(Br)c3)[C@@H]2C)[nH]1 = 70 to 80%
25. Cc1ccnnc1-c1ccc(C(=O)N2CC[C@H](C(=O)Nc3cc(F)c(F)c(F)c3)C2)[nH]1 = 70 to 80%
26. Cc1ncn(C)c1-c1ccc(C(=O)N2CC[C@H](C(=O)Nc3cc(F)c(F)c(F)c3)C2)[nH]1 = 70 to 80%
27. N#Cc1c(C(=O)N2CC[C@H](C(=O)Nc3cc(F)c(F)c(F)c3)C2)[nH]c2ncccc12 = 70 to 80%
28. Cc1c(-c2ccc(C(=O)N3CC[C@H](C(=O)Nc4cc(F)c(F)c(F)c4)C3)[nH]2)c2cccnc2n1C = < 45%
29. O=C(Nc1cc(F)c(F)c(F)c1)[C@H]1CCN(C(=O)c2nccs2)C1 = > 90%
30. O=C(Nc1ccc(F)c(Cl)c1)[C@H]1CCN(C(=O)c2nc3cccnc3[nH]2)C1 = 70 to 80%
31. O=C(Nc1cc(F)c(F)c(F)c1)[C@H]1CCN(C(=O)c2ccc(Cl)[nH]2)C1 = 70 to 80%
